test system: HCV genotype 1b (Con1) replicon in HUH-7 cells; test: HCV replicon luciferase reporter assay, genotype 1b; format: cell-based; conditions: Hepatitis C virus, Huh-7, 72 h, HCV genotype 1b replicon luciferase, 3 days incubation, read-out: LE_1b (EC50, range)

{"columns": ["cpd_smiles", "EC50"],
 "data": [
  ["CCOc1nnc(O[C@@H]2C[C@H]3C(=O)N[C@]4(C(=O)NS(=O)(=O)C5(C)CC5)C[C@H]4/C=C\\CC[C@@H](C)C[C@@H](CC)[C@H](NC(=O)OC(C)(C)C(F)(F)F)C(=O)N3C2)c2ccccc12", "< 5.46 nM"],
  ["CC[C@@H]1C[C@H](C)CC/C=C\\[C@@H]2C[C@@]2(C(=O)NS(=O)(=O)C2(C)CC2)NC(=O)[C@@H]2C[C@@H](Oc3nccc4c5c(ccc34)N(C)CCO5)CN2C(=O)[C@H]1NC(=O)OC(C)(C)C(C)(F)F", "< 5.46 nM"]
]}

---

tested on: HCV genotype 1b (Con1) replicon in HUH-7 cells; test: HCV replicon luciferase reporter assay, genotype 1b; format: cell-based; conditions: Hepatitis C virus, Huh-7, 72 h, HCV genotype 1b replicon luciferase, 3 days incubation, read-out: LE_1b (EC50, range)
Catalogue of molecules with associated EC50

{"columns": ["cpd_smiles", "EC50"],
 "data": [
  ["COc1cc2ccnc(O[C@@H]3C[C@H]4C(=O)N[C@]5(C(=O)NS(=O)(=O)C6(C)CC6)C[C@H]5/C=C\\CC[C@@H](C)C[C@@H](C)[C@H](NC(=O)OC(C)(C)C)C(=O)N4C3)c2cc1OC", "1.01 to 5 nM"],
  ["[2H]C([2H])([2H])Oc1cnc(O[C@@H]2C[C@H]3C(=O)N[C@]4(C(=O)NS(=O)(=O)C5(C)CC5)C[C@H]4/C=C\\CC[C@H](C)C[C@@H](C)[C@H](NC(=O)OC(C)(C)C)C(=O)N3C2)c2ccccc12", "< 5.46 nM"],
  ["CC(C)Oc1cc2ccccc2c(O[C@@H]2C[C@H]3C(=O)N[C@]4(C(=O)NS(=O)(=O)C5(CF)CC5)C[C@H]4/C=C\\CC[C@@H](C)C[C@@H](C)[C@H](NC(=O)OC(C)(C)C(F)(F)F)C(=O)N3C2)n1", "1.01 to 5 nM"],
  ["CCn1nc(O[C@@H]2C[C@H]3C(=O)N[C@]4(C(=O)NS(=O)(=O)C5CC5)C[C@H]4/C=C\\CC[C@@H](C)C[C@@H](C)[C@H](NC(=O)C(=O)N(C)C)C(=O)N3C2)c2ccccc2c1=O", "> 87.4 nM"],
  ["COc1ccc2c(O[C@@H]3C[C@H]4C(=O)N[C@]5(C(=O)NS(=O)(=O)C6(C)CC6)C[C@H]5/C=C\\CC[C@@H](C)C[C@@H](C)[C@H](NC(=O)OC(C)(C)C)C(=O)N4C3)ncc(-c3ccc(OC)nc3)c2c1", "< 5.46 nM"],
  ["CCCOc1ccc2c(O[C@@H]3C[C@H]4C(=O)N[C@]5(C(=O)NS(=O)(=O)C6CC6)C[C@H]5/C=C\\CC[C@@H](C)C[C@@H](C)[C@H](NC(=O)OC(C)(C)C(F)(F)F)C(=O)N4C3)nccc2c1", "< 5.46 nM"],
  ["[2H]C([2H])([2H])Oc1cnc(O[C@@H]2C[C@H]3C(=O)N[C@]4(C(=O)NS(=O)(=O)C5(C)CC5)C[C@H]4/C=C\\CC[C@H](C)C[C@@H](C)[C@H](NC(=O)OC(C)(C)C(F)(F)F)C(=O)N3C2)c2ccccc12", "< 5.46 nM"],
  ["CCOc1cnc(O[C@@H]2C[C@H]3C(=O)N[C@]4(C(=O)NS(=O)(=O)C5CC5)C[C@H]4/C=C\\CC[C@@H](C)C[C@@H](C)[C@H](NC(=O)OC(C)(C)C)C(=O)N3C2)c2cc(F)ccc12", "< 5.46 nM"],
  ["COc1ccc2c(O[C@@H]3C[C@H]4C(=O)N[C@]5(C(=O)NS(=O)(=O)C6(C)CC6)C[C@H]5/C=C\\CC[C@@H](C)C[C@@H](C)[C@H](NC(=O)OC(C)(C)C(C)(F)F)C(=O)N4C3)nc(OC(C)C)cc2c1", "1.01 to 5 nM"],
  ["CCOc1nnc(O[C@@H]2C[C@H]3C(=O)N[C@]4(C(=O)NS(=O)(=O)C5(C)CC5)C[C@H]4/C=C\\CC[C@@H](C)C[C@@H](C)[C@H](NC(=O)OC(C)(C)C)C(=O)N3C2)c2ccccc12", "< 5.46 nM"],
  ["COc1ccc2c(Cl)cc(O[C@@H]3C[C@H]4C(=O)N[C@]5(C(=O)NS(=O)(=O)C6(C)CC6)C[C@H]5/C=C\\CC[C@@H](C)C[C@@H](C)[C@H](NC(=O)OC(C)(C)C)C(=O)N4C3)nc2c1", "0.51 to 1 nM"],
  ["CC(C)Oc1ccc2c(O[C@@H]3C[C@H]4C(=O)N[C@]5(C(=O)NS(=O)(=O)C6(C)CC6)C[C@H]5/C=C\\CC[C@H](C)C[C@@H](C)[C@H](NC(=O)O[C@@H]5C[C@@H]6C[C@@H]6C5)C(=O)N4C3)nccc2c1", "< 5.46 nM"],
  ["COc1cc2ccnc(O[C@@H]3C[C@H]4C(=O)N[C@]5(C(=O)NS(=O)(=O)C6(CF)CC6)C[C@H]5/C=C\\CC[C@@H](C)C[C@@H](C)[C@H](N)C(=O)N4C3)c2cc1F", "4.82 to 103 nM"],
  ["COc1cc2nc(C(F)(F)F)c(OC)nc2cc1O[C@@H]1C[C@H]2C(=O)N[C@]3(C(=O)NS(=O)(=O)C4(C)CC4)C[C@H]3/C=C\\CC[C@H](C)C[C@@H](C)[C@H](NC(=O)OC(C)(C)C)C(=O)N2C1", "35 to 620 nM"],
  ["[2H]C([2H])([2H])Oc1cnc(O[C@@H]2C[C@H]3C(=O)N[C@]4(C(=O)NS(=O)(=O)C5(C)CC5)C[C@H]4CCCC[C@@H](C)C[C@@H](C)[C@H](NC(=O)OC(C)(C)C(F)(F)F)C(=O)N3C2)c2ccccc12", "< 5.46 nM"],
  ["COc1ccc2c(O[C@@H]3C[C@H]4C(=O)N[C@]5(C(=O)NS(=O)(=O)C6(C)CC6)C[C@H]5/C=C\\CC[C@@H](C)C[C@@H](C)[C@H](NC(=O)OC(C)(C)C(F)F)C(=O)N4C3)nc3c(c2c1)CCCO3", "0.51 to 1 nM"],
  ["CCOc1cc2cc(OC)ccc2c(O[C@@H]2C[C@H]3C(=O)N[C@]4(C(=O)NS(=O)(=O)C5(C)CC5)C[C@H]4/C=C\\CC[C@H](C)C[C@@H](C)[C@H](NC(=O)OC(C)(C)C)C(=O)N3C2)n1", "0.51 to 1 nM"]
]}

The measurements presented in this section are drawn from patent US9499550B2.
